# Test system: Morphine-dependent rats
# ASSAY_NOTES: Morphine replacement action (elimination of withdrawal symptoms) in morphine-dependent rats
# Type: in vivo, rat
# ASSAY_CONTEXT: grade, scale not defined
ASSAY_ENDPOINT: Morphine replacement action (elimination of withdrawal symptoms)
The response must contain the number and no unit.

Look up and state reported Morphine replacement action (elimination of withdrawal symptoms) for CCC(=O)OCCCCOc1ccc2c(c1)C1(CC)CCN(CC3CC3)C(C2)C1C (stereo not shown) [Example 10a] 0

Look up and state reported Morphine replacement action (elimination of withdrawal symptoms) for COc1ccc2c3c1O[C@H]1[C@@H](O)C=C[C@H]4[C@@H](C2)N(C)CC[C@@]341 [Codeine, reference compound] 3

Look up and state reported Morphine replacement action (elimination of withdrawal symptoms) for CCC12CCN(CC3CC3)C(Cc3ccc(OCCCOC(=O)C(C)C)cc31)C2C (stereo not shown) [Example 2b] 0

Look up and state reported Morphine replacement action (elimination of withdrawal symptoms) for CC(C)=CCN1CCC2(C)c3cc(O)ccc3CC1C2C (stereo not shown) [Pentazocine, reference compound] 1

Provenance of the data: patent US3936463A
